- System: H23 spheroids
- experimental.details: 3D spheroid assay
- Type: cell-based
- applied.conditions: H23 spheroid; read-out: IC50 in cell line derived spheroid
quantity.name: IC50 (µM)
Give the number; µM is assumed, so skip it.

Consider C=CC(=O)N1CCN(c2nc(=O)n(-c3c(C)ccnc3C(C)C)c3nc(-c4c(O)cccc4F)c(F)cc23)[C@@H](C)C1 [sotorasib] . Its measured IC50 is 12.3

====

- Test system: H23
- experimental.details: Cell proliferation assay, 2D (IncuCyte live cell imaging)
- Type: cell-based
- applied.conditions: Homo sapiens, NCI-H23, H23; Example 1, FIG. 14C-14D
quantity.name: IC50 (µM)
Give the number; µM is assumed, so skip it.

Consider C=CC(=O)N1CCN(c2nc(=O)n(-c3c(C)ccnc3C(C)C)c3nc(-c4c(O)cccc4F)c(F)cc23)[C@@H](C)C1 [sotorasib] . Its measured IC50 is 3.2
